Tested on: SNB-19 CNS
Experiment: NCI tumour cell line growth inhibition, 48 h
Here the recorded TGI is given for each entry.
result.type: TGI

# compound, result.value
rows = [
    ("CN1C(=O)c2ccccc2NC(=O)c2cnn(C)c21", "> 100 µM"),
    ("COC(=O)Nc1nc2ccc(Oc3ccc(NC(=O)Nc4cccc(C(=O)O)c4)cc3)cc2[nH]1", "> 25 µM"),
    ("CCSc1nc(N)c2c(-c3ccc(OC)c(OC)c3)c3c(nc2n1)CCCC3", "> 100 µM"),
    ("COc1cccc(-c2cc(=O)c3cc(OC)c(OC)cc3[nH]2)c1", "> 100 µM"),
    ("COc1cc(C2=NN(C)C(c3ccc([N+](=O)[O-])o3)C2)cc(OC)c1OC (stereo unspecified)", "> 100 µM"),
    ("COC(=O)/C=C/c1ccc2c(c1)CCC2", "> 100 µM"),
    ("CC(=O)[CH-]C(=O)c1ccccc1.CC(=O)[CH-]C(=O)c1ccccc1.CC[O-].CC[O-].[Zr+4]", "> 100 µM"),
    ("COC(=O)[C@@H]1CN(C(=O)c2ccccc2)C(=O)N1", "> 100 µM"),
    ("Cc1ccc(/C(O)=C/c2nc3ccccc3oc2=O)cc1", "> 100 µM"),
    ("Cc1ccc2c(c1)C(=O)/C(=C\\c1ccccc1)CCS2(=O)=O", "28.2 µM"),
    ("Cc1cc2c(cc1Cl)SC1=CC(=O)N(c3ccccc3)C1=NS2(=O)=O", "> 100 µM"),
    ("CCOC(=O)c1c(N)nn2c1cc1cccccc12", "> 100 µM"),
    ("COC1=C2CC(C)CC(OC)[C@@H](OC(=O)CCN)[C@H](C)/C=C(\\C)C(OC(N)=O)C(OC)/C=C\\C=C(/C)C(=O)NC(=CC1=O)C2=O (stereo partly specified)", "20.4 µM"),
    ("COC(=O)CCCN(C)c1n[nH]c(N)n1", "> 100 µM"),
    ("Cc1ccccc1C1CC(=O)CC(c2ccccc2C)C12C(=O)NC(=O)NC2=O (stereo unspecified)", "> 100 µM"),
    ("Nc1ccccc1CCCC(=O)O", "> 100 µM"),
    ("C=C1C(=O)O[C@@H]2[C@H]1C[C@@H](O)[C@H](C)[C@@](O)(C(=O)/C=C/C)[C@H]2OC(=O)C(C)CC (stereo partly specified)", "> 68.8 µM"),
    ("COc1cc(O)cc(/C=C/c2ccc(O)cc2)c1", "> 100 µM"),
    ("CCN(CC)CC(=O)Nc1c(C(N)=O)nnn1Cc1cc(Cl)c(C(=O)c2ccc(Cl)cc2)c(Cl)c1", "> 100 µM"),
    ("CCOC(C)C(/C=N/NC(N)=S)=NNC(N)=S (stereo unspecified)", "> 100 µM"),
    ("N#C/C(=C\\c1ccc(-c2ccc(Cl)cc2)o1)C(=O)Nc1ncc(Cc2ccc(Cl)cc2)s1", "12.8 µM"),
    ("CCCCON1C[C@@H](O)C(O)[C@@H](O)C1 (stereo partly specified)", "> 100 µM"),
    ("N#Cc1c2ccc([N+](=O)[O-])cc2c(=O)n2c1sc1ccc(C(F)(F)F)cc12", "> 100 µM"),
    ("O=[N+]([O-])C(Cl)C(Cl)C(Cl)=C(Cl)Cl (stereo unspecified)", "> 100 µM"),
    ("Cc1ccc(Cl)c2c(=O)c3ccc([N+](=O)[O-])cc3sc12", "> 100 µM"),
    ("Oc1ccc(-c2nnc3sc(-c4ccc(F)c(Oc5ccccc5)c4)nn23)cc1", "> 100 µM"),
]
